endpoint_label: melting point

Illustrative cases are given below, each with its answer.
>>> measurement("COc1cc(OCc2ccc(C(F)(F)F)cn2)ccc1-c1c[nH]c(-c2ccc(F)nc2)n1 [Example 124]")
"141 to 144 °C"
>>> measurement("COc1cc(-c2[nH]c(C3CCCC3)nc2Cl)ccc1OCc1ncc(C(F)(F)F)cc1F [Example 368]")
"158 to 163 °C"
>>> measurement("COc1cc(OCc2coc(C)n2)ccc1-c1cnc(C2CCC(F)(F)CC2)[nH]1 [Example 13]")
"52 to 63 °C"
>>> measurement("COc1cc(OC(C)c2ccc(C(F)(F)F)nc2)ccc1-c1[nH]c(-c2ccc(F)nc2)nc1Cl (stereo not shown) [Example 239]")
"148 to 150 °C"
>>> measurement("COc1cc(OCc2cccc(C(F)(F)F)n2)ccc1-c1c[nH]c(-c2ccc(Cl)nc2)n1 [Example 36]")
"222 to 224 °C"

For the compound COc1cc(OCc2ccc(C(F)(F)F)cn2)ccc1-c1c[nH]c(-c2ccc(SC(C)(C)C)cn2)n1 [Example 59] , what melting point is on record? 159 to 160 °C

Quick check: melting point of COc1cc(OCc2ccc(C(F)(F)F)cn2)ccc1-c1cnc(-c2ccc(C#N)nc2)[nH]1 [Example 150] ? 241 to 244 °C (dec.)

Which melting point value belongs to COc1cc(OCc2cnc(Cl)cn2)ccc1-c1c[nH]c(-c2ccc(F)nc2)n1 [Example 123] ? 197 to 199 °C

* * *

method_notes: Solubility in gastric juice or intestinal juice model fluid (precipitation method using DMSO)
Format: physicochemical
settings: pH 6.8, kinetic from dmso stock, 2nd fluid for Disintegration Test of Japanese Pharmacopoeia (pH: 6.8), room temperature, read-out: Solubility (μg/mL) 2nd fluid
The following compounds are listed with their measured solubility at 24 h values.
# number only, unit µg/mL dropped from output

// known answers, use as guide
>>> measurement("COc1cc(OCc2ncc(C(F)(F)F)cc2F)ccc1-c1[nH]c(C2CC2)nc1Cl")
0.7
>>> measurement("COc1cc(OCc2ncc(C)cc2C)ccc1-c1nc(-c2ccc(F)nc2)[nH]c1Cl")
7

Requested field: solubility at 24 h. Item: COc1cc(-c2[nH]c(C(C)(C)C)nc2Cl)ccc1OCc1ncc(C(F)(F)F)cc1F 1.2

Tell me the measured solubility at 24 h of CCc1cc(OCc2ncc(C(F)(F)F)cc2F)ccc1-c1cnc(-c2ccc(F)nc2)[nH]1 , please. 6.9

What does the record list as solubility at 24 h for COc1cc(OCc2cnc(C)cn2)ccc1-c1nc(-c2ccc(F)nc2)[nH]c1Cl ? 1.8

Form field: reported solubility at 24 h of Cc1cc(OCc2ncc(C(F)(F)F)cc2F)ccc1-c1cnc(-c2ccc(F)nc2)[nH]1 7

* * *

Below: a set of entries, each annotated with reported solubility at 24 h.
method_notes: Solubility in gastric juice or intestinal juice model fluid (precipitation method using DMSO)
Assay type: physicochemical
settings: pH 1.2, simulated gastric fluid, kinetic from dmso stock, 1st fluid for Disintegration Test of Japanese Pharmacopoeia (pH: 1.2), room temperature, read-out: Solubility (μg/mL) 1st fluid
Give just the number in µg/mL; leave the unit off.

Solved cases (6 shown):
>>> measurement("COc1cc(OCc2ncc(F)cc2F)ccc1-c1[nH]c(-c2ccc(F)nc2)nc1Br [Example 266]")
64.3
>>> measurement("COc1cc(OCc2ccc(C(F)(F)F)cn2)ccc1-c1[nH]c(C2CCCC(F)(F)C2)nc1Cl (stereo not shown) [Example 182]")
95.5
>>> measurement("COc1cc(-c2cnc(-c3ccc(F)nc3)[nH]2)ccc1OCc1ncc(C(F)(F)F)cc1F [Example 324]")
20.2
>>> measurement("COc1cc(OCc2ccc(C(F)(F)F)cn2)ccc1-c1c(Br)nc(-c2ccc(F)nc2)n1C [Example 303]")
84.3
>>> measurement("COc1cc(OCc2ccc(C(F)(F)F)nc2)ccc1-c1nc(-c2ccc(Cl)nc2)[nH]c1C [Example 49]")
8.7
>>> measurement("COc1cc(-c2nc(-c3ccc(Cl)cn3)[nH]c2C)ccc1OCc1ccc(C(F)(F)F)nc1 [Example 29]")
3

// solubility at 24 h lookup, key: COc1cc(-c2cnc(C3CCCC(F)(F)C3)[nH]2)ccc1OCc1ccc(C(F)(F)F)cn1 (stereo not shown) [Example 5] 90.1

I have this compound here, COCCn1c(-c2ccc(F)nc2)nc(Cl)c1-c1ccc(OCc2ccc(C(F)(F)F)cn2)cc1OC [Example 297] , and I need its recorded solubility at 24 h. 89.8

Which solubility at 24 h is listed for COc1cc(OCc2ncccc2C(F)(F)F)ccc1-c1[nH]c(-c2ccc(Cl)nc2)nc1Br [Example 253] ? 5.9

So what's the measured solubility at 24 h for this one? COc1cc(OCc2ccc(C(F)(F)F)cn2)ccc1-c1c(Cl)nc(-c2ccc(F)nc2)n1CC1CC1 [Example 296] 73

Would you kindly share the measured solubility at 24 h for COc1cc(O[C@@H](C)c2ccc(C(F)(F)F)nc2)ccc1-c1cnc(-c2ccc(F)nc2)[nH]1 [Example 147] ? 12.4

If you can, please state the reported solubility at 24 h value of COc1cc(OCc2ncc(C(F)(F)F)cc2F)ccc1-c1[nH]c(-c2ccc(F)nc2)nc1C [Example 331] . 94.6

Entry COc1cc(OCc2ccccc2)ccc1-c1[nH]c(-c2ccc(F)nc2)nc1C [Example 332] : reported solubility at 24 h = ? 77.7

Requested field: solubility at 24 h. Item: COc1c(OCc2ccc(C(F)(F)F)nc2)ccc(-c2[nH]c(C3CCC(F)(F)CC3)nc2Cl)c1OC [Example 200] 98.4

Query: solubility at 24 h; subject: COc1cc(-c2nc(-c3ccc(Cl)nc3)[nH]c2C)ccc1OCc1ccc(C(F)(F)F)cn1 [Example 30] 24
